experimental_target: Ribosomal protein S6 kinase alpha-3 (Homo sapiens) (UniProt P51812)
Sequence (P51812 whole entry): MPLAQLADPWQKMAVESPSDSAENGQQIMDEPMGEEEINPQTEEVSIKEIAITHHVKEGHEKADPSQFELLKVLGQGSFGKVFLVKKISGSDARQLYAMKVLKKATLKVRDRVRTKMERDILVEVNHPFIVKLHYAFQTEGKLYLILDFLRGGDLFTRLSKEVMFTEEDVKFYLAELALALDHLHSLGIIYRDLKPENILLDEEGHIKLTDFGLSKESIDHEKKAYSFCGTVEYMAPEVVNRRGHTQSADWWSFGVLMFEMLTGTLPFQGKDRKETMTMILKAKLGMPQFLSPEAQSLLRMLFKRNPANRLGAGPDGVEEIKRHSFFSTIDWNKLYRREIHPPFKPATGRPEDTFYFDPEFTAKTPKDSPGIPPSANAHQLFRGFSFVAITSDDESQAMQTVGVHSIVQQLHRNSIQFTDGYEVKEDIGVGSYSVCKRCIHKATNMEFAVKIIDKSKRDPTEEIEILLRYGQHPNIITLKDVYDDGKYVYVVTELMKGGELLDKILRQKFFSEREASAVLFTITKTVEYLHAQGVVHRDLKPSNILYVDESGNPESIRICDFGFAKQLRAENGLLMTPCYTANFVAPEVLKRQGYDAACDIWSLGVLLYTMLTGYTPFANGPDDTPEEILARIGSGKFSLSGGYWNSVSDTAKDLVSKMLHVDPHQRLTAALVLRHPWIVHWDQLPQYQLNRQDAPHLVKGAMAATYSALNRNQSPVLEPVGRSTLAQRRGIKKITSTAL
test_context: at 1 µM
Quick rule for you: residual activity at 50% or higher means class 1, lower means class 0.

Field: example entries. Status: answers known.
- N#Cc1cnc2cnc(NCc3cccnc3)cc2c1Nc1ccc(F)c(Cl)c1: class 0
- Ic1cccc(CSc2nnc(-c3ccncc3)o2)c1: class 0
- COc1cccc(-c2cc(=O)c3ccccc3o2)c1N: class 1
- Cc1ccc(NC2=CC(=O)c3sc(C)nc3C2=O)cc1: class 1
- COc1ccc(CNc2nc(N(CCO)CCO)nc3c2ncn3C(C)C)cc1: class 0
- Cc1nc2cc3nc(-c4cccs4)cnc3cc2n1C: class 1

Input: In plain terms: is recorded residual activity at least 50% for O=C1Nc2ccccc2/C1=C1/Nc2ccccc2/C1=N\OCCC(O)CO (stereo unspecified) ?
Output: class 0

Input: API: above_or_equal(metric=residual activity, cutoff=50%) for item O=[N+]([O-])c1ccc(-c2nc(-c3ccc(F)cc3)c(-c3ccncc3)[nH]2)cc1
Output: class 1

Input: Answer whether residual activity of Oc1c2ccccc2c2c3c(cccc13)N=N2 is greater than or equal to 50%.
Output: class 1

Input: Hi team, for O=C1NC(=O)c2cc(Nc3ccc(F)cc3)c(Nc3ccc(F)cc3)cc21 , is the recorded residual activity at or above 50%?
Output: class 1

* * *

Consider the following compounds and their measured residual activity readings.
experimental_target: Myotonin-protein kinase (Homo sapiens) (UniProt Q09013)
Sequence (Q09013 whole entry): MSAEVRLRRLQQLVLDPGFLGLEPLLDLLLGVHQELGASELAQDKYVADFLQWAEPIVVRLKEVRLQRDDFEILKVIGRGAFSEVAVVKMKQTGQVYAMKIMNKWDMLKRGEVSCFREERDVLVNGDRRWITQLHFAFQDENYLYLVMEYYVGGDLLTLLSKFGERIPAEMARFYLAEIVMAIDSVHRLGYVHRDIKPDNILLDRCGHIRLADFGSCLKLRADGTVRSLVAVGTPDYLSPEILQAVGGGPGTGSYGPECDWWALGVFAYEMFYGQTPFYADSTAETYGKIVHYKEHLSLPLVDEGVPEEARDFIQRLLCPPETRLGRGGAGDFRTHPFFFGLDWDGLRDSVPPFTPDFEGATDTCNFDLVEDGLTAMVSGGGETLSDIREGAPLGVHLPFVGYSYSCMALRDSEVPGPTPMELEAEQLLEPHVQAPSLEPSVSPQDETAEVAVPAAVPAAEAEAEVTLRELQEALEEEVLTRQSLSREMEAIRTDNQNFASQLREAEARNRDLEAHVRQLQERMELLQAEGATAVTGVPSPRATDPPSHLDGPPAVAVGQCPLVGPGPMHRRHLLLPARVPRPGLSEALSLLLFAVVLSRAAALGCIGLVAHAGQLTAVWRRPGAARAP
test_context: at 10 µM
API: value field is a number in %; no unit string.

• Cn1cnc2cc3c(Nc4cccc(Br)c4)ncnc3cc21 = 111
• NC(=O)c1ccc2[nH]c(-c3ccc(Oc4ccc(Cl)cc4)cc3)nc2c1 = 83

Input: Requested read-out: residual activity. Entry: Cc1cc(Nc2nc(-c3ccccc3)nc3ccccc23)n[nH]1
Output: 79

Input: Would you kindly share the measured residual activity for CCOc1cc2ncnc(Nc3cccc(Br)c3)c2cc1OCC ?
Output: 135

Input: Field request: residual activity | item: CO[C@@H]1[C@H](N(C)C(=O)c2ccccc2)C[C@H]2O[C@]1(C)n1c3ccccc3c3c4c(c5c6ccccc6n2c5c31)C(=O)NC4
Output: 90

* * *

experimental_target: Mitogen-activated protein kinase 14 (Homo sapiens)
test_context: at 10 µM
measurement_name: residual activity (%)
Write down the numeric answer in % and omit the unit.

Illustrative cases are given below, each with its answer.
- Cc1cc2ncc(-c3ccccc3)nc2cc1C: 82
- CC(C)n1cnc2/c(=N/c3cccc(Cl)c3)nc(NCCO)[nH]c21: 74
- c1ccc(-c2n[nH]c3c2oc2ccccc23)cc1: 78
- CCOc1cc2ncnc(Nc3cccc(Br)c3)c2cc1OCC: 13
- CC[n+]1c(/C=C/N(C)c2ccccc2)n(-c2ccccc2)c2ccc(-c3nc4ccccc4s3)cc21: 73

Input: Bench note: what residual activity did COc1cc2ncnc(Nc3ccc(O)c(Br)c3)c2cc1OC show?
Output: 14

Input: residual activity lookup needed for COc1cc2ncnc(Nc3ccc(Oc4ccccc4)cc3)c2cc1OC , thanks.
Output: 80

Input: What value of measured residual activity is listed for COc1ccc(OC)c2c(=S)c3ccccc3[nH]c12 ?
Output: 91

Input: Looking for the measured residual activity of c1ccc2c(-c3ccncc3)c[nH]c2c1 , can you help?
Output: 54

Input: Record request: residual activity value, item CC(=O)O/N=C1\C(=C2\C(=O)Nc3cc(Br)ccc32)Nc2ccccc21
Output: 85

Input: Tell me the measured residual activity of N#Cc1cnc2cnc(NCc3cccnc3)cc2c1Nc1ccc(F)c(Cl)c1 , please.
Output: 89

Input: // lookup residual activity for CN(C)c1ccc(/C=C2\C(=O)Nc3ccccc32)cc1
Output: 106

Input: // lookup residual activity for Cc1ccc(S(=O)(=O)/C=C/C#N)cc1
Output: 97

Input: Quick check: residual activity of CC#CC(=O)Nc1cc2c(Nc3ccc(F)c(Cl)c3)ncnc2cn1 ?
Output: 98
